- System: Rice
- procedure text: Whole plant screen for plant growth regulator activity, rice (RC)
- Format: in vivo, Rice (Ishikari)
- conditions: 4000 ppm (4 kg/ha), visual score after 2-6 weeks
value type: G = Greening effect

Noted for CC(C)(C)C(O)(C#CCCCCl)c1cncnc1 (centres unmarked) [Compound 19] : its G = Greening effect reads 2 (31-60%)

Briefly, G = Greening effect measured for CC(C)C#CC(O)(c1cncnc1)C(C)(C)C (centres unmarked) [Compound 18] : 1 (10-30%)

Lab note: CCCCCCC(O)(c1cncnc1)C(C)(C)C (centres unmarked) [Compound 30] gave G = Greening effect of 2 (31-60%)

Short answer for CC(C)CCC(O)(c1cncnc1)C(C)C (centres unmarked) [Compound 13] : G = Greening effect was 1 (10-30%)
